Attribution: ChEMBL document CHEMBL1146492

tested on: Col2; experiment: Cytotoxicity against human Col2 cells; type: functional, cell-based; details: read-out: ED50 (the source's name)
Field: label. Allowed values: fulfilled (EC50 < 200 nM) or not fulfilled (EC50 >= 200 nM).

COc1ccc([C@@]23Oc4cc(OC)cc(OC)c4[C@]2(O)[C@H](OC(C)=O)C[C@H]3c2ccccc2)cc1: fulfilled
CC[C@@]1(O)C(=O)OCc2c1cc1n(c2=O)Cc2cc3ccccc3nc2-1: fulfilled
CC(=O)O[C@H]1C(=O)[C@@]2(C)[C@H]([C@H](OC(=O)c3ccccc3)[C@]3(O)C[C@H](OC(=O)[C@H](O)[C@@H](NC(=O)c4ccccc4)c4ccccc4)C(C)=C1C3(C)C)[C@]1(OC(C)=O)CO[C@@H]1C[C@@H]2O: fulfilled

Hello, is EC50 of the following compound strictly smaller than 200 nM? COc1ccc([C@@]23Oc4cc(OC)cc(OC)c4[C@]2(O)[C@H](O)[C@H](C(=O)O)[C@H]3c2ccccc2)cc1
not fulfilled

Hello, is EC50 of the following compound strictly smaller than 200 nM? COC(=O)[C@H]1[C@@H](O)[C@@]2(O)c3c(OC)cc(OC)cc3O[C@@]2(c2ccc(OC)cc2)[C@@H]1c1ccccc1
not fulfilled
